Record form. Attribute: AC50. Fill in for each entry.
Biological target: Adenosine receptor A3 (Homo sapiens); note: assay procedure not described here
Sequence (P0DMS8 whole entry): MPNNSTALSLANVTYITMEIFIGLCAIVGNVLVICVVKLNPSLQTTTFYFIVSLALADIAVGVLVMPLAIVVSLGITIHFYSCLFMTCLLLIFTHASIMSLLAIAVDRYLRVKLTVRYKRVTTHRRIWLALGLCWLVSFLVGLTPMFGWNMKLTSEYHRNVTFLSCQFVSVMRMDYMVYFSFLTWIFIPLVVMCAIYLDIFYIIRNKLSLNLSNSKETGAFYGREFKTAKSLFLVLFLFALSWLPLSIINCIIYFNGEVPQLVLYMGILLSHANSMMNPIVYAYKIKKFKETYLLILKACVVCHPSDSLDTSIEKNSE

// known answers, use as guide
compound | observed.result
Cc1ccc(Cl)c(Nc2ccccc2C(=O)O)c1Cl | 29.6 µM
CC(=O)Oc1ccccc1C(=O)O | > 30 µM
CC(C)N1CCOC(c2cccc(C(F)(F)F)c2)C1 (stereo unspecified) | > 30 µM
O=NN(CCCl)C(=O)NC1CCCCC1 | > 30 µM
Cc1cc(C)cc(OCC2CNC(=O)O2)c1 (stereo unspecified) | > 30 µM

List the reported AC50 of each compound below.
1. O=P1(N(CCCl)CCCl)NCCCO1 (stereo unspecified) [CYCLOPHOSPHAMIDE ANHYDROUS]
2. N[C@@H](Cc1ccc(N(CCCl)CCCl)cc1)C(=O)O
3. CN(C)CCCC1(c2ccc(F)cc2)OCc2cc(C#N)ccc21 (stereo unspecified)
4. NC(=O)C1(N2CCCCC2)CCN(CCCC(=O)c2ccc(F)cc2)CC1
5. Cc1cnc(C(=O)O)c[n+]1[O-]
6. Cc1cccc(C)c1NC(=O)CN(CC(=O)O)CC(=O)O
7. Cc1ccc(C(C)C)c(O)c1
8. C[C@@H]1CN(c2c(F)c(N)c3c(=O)c(C(=O)O)cn(C4CC4)c3c2F)C[C@H](C)N1

["> 30 µM", "> 30 µM", "> 30 µM", "> 30 µM", "> 30 µM", "> 30 µM", "> 30 µM", "> 30 µM"]

====

Target sequence: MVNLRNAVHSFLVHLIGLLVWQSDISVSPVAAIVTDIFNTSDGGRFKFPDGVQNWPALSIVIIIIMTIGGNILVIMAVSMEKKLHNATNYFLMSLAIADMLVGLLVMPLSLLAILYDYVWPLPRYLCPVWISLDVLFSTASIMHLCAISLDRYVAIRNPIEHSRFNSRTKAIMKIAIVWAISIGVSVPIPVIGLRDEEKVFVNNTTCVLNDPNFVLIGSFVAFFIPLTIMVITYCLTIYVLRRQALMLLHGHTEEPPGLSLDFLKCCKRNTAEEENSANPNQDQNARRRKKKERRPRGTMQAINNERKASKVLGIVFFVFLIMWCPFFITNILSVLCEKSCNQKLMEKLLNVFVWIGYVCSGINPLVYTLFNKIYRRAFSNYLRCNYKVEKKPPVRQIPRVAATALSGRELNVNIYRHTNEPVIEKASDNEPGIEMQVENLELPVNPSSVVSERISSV
Assignment: determine reported AC50 for the given molecules.

Take a look at these entries with their results.
molecule | AC50
C=CC1=C(C(=O)O)N2C(=O)[C@@H](NC(=O)/C(=N\O)c3csc(N)n3)[C@H]2SC1 | > 30 µM
CC(C(=O)O)c1ccc(C(=O)c2ccccc2)s1 (centres undefined) [TIAPROFENIC ACID] | > 30 µM
CC1Cc2ccccc2N1NC(=O)c1ccc(Cl)c(S(N)(=O)=O)c1 (centres undefined) [INDAPAMIDE] | > 30 µM
CN1CC2c3ccccc3Oc3ccc(Cl)cc3C2C1 (centres undefined) [ASENAPINE] | 0.0006 µM
CCN(CC)CCCN(c1ccccc1)C1Cc2ccccc2C1 [APRINDINE] | 8.5 µM

Could you tell me AC50 for each of these molecules? They are listed below.
1. CN(C)CCN(Cc1ccccc1)c1ccccn1 [TRIPELENNAMINE]
2. Nc1nc(Cl)nc2c1ncn2[C@@H]1O[C@H](CO)[C@@H](O)[C@@H]1F [CLOFARABINE]
3. CC1CC(OC(=O)C(O)c2ccccc2)CC(C)(C)C1 (centres undefined) [CYCLANDELATE]
4. CC(=O)OCC1=C(C(=O)O)N2C(=O)[C@@H](NC(=O)CSc3ccncc3)[C@H]2SC1 [CEPHAPIRIN]

1. > 10 µM
2. > 30 µM
3. > 30 µM
4. > 30 µM
